Listing of entries alongside the reported relative enzymatic activity.
# Test system: RNA polymerase
# experiment notes: relative enzymatic activity vs untreated control (fraction); higher = less inhibition
# condition: 100 µM; incubation time: 2 h at 37 C
Please reply with the value in numeric form only.

Previously resolved entries follow.
# molecule, relative enzymatic activity
rows = [
    ("CO[C@@H]1[C@@H](OC(=O)c2ccc(C)[nH]2)[C@@H](O)[C@@H](Oc2ccc3c(c2C)OC(=O)[C@H](NC(=O)c2[nH]cc(CC(=O)Nc4cc5ccc(O[C@@H]6OC(C)(C)[C@H](OC)[C@@H](OC(=O)c7ccc(C)[nH]7)[C@H]6O)c(C)c5oc4=O)c2C)C3)CC1(C)C", 0.715),
    ("O=[N+]([O-])c1ccc(O)c2ncccc12", 0.748),
    ("CO/N=C(\\C(=O)N[C@@H]1C(=O)N2C(C(=O)O)=C(C[n+]3ccn4ncccc43)CS[C@H]12)c1nsc(N)n1", 0.828),
    ("CC(N)O.Cc1cc(CC(C)CC(C)(C)C)n(O)c(=O)c1 (configuration not stated)", 0.884),
    ("CON=C(C(=O)NC1C(=O)N2C(C(=O)[O-])=C(CSc3nc(=O)c([O-])nn3C)CSC12)c1csc(N)n1.O.O.O.[Na+].[Na+] (configuration not stated)", 0.843),
    ("COc1c(N2CCNC(C)C2)c(F)cc2c(=O)c(C(=O)O)cn(C3CC3)c12 (configuration not stated)", 0.763),
]

// next item, relative enzymatic activity requested
Lookup result for CC1C(NC(=O)C(=NOC(C)(C)C(=O)O)c2csc(N)n2)C(=O)N1S(=O)(=O)O (configuration not stated) ; measured relative enzymatic activity: 0.844

====

# experimental target: DNA primase (UniProt P0ABS7)
# Sequence (P0ABS7 whole entry): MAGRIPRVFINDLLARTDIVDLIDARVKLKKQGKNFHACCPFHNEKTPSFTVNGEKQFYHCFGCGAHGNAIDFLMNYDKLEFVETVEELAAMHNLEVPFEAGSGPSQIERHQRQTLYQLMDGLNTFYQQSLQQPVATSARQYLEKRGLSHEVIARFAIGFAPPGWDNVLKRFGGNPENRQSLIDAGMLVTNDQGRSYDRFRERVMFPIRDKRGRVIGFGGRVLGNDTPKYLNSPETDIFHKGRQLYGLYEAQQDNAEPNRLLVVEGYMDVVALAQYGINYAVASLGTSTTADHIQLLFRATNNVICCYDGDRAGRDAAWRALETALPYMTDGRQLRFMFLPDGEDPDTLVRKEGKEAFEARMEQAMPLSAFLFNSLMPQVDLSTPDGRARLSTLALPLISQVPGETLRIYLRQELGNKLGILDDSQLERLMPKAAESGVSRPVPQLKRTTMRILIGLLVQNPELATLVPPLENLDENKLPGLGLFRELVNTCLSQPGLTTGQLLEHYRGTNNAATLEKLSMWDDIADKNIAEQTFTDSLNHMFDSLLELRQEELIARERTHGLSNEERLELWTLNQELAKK
# experiment notes: relative enzymatic activity vs untreated control (fraction); higher = less inhibition
# condition: 100 µM; incubation time: 2 h at 37 C
parameter measured: relative enzymatic activity
Please reply with the value in numeric form only.

Previously resolved entries follow.
# compound, readout value
data = [
    ("CN(C)C1C(O)=C(C(N)=O)C(=O)C2(O)C(O)=C3C(=O)c4c(O)cccc4C(C)(O)C3C(O)C12.Cl (stereo not given)", 0.517),
    ("C=CC1=C(C(=O)O)N2C(=O)[C@@H](NC(=O)/C(=N\\O)c3csc(N)n3)[C@H]2SC1", 0.774),
    ("Cc1c(N)nc([C@H](CC(N)=O)NC[C@H](N)C(N)=O)nc1C(=O)N[C@H](C(=O)N[C@H](C)[C@@H](O)[C@H](C)C(=O)N[C@H](C(=O)NCCc1nc(-c2nc(C(=O)NCCCNCCCCN)cs2)cs1)[C@@H](C)O)[C@@H](O[C@@H]1O[C@@H](CO)[C@@H](O)[C@H](O)[C@@H]1O[C@@H]1O[C@H](CO)[C@@H](O)[C@H](OC(N)=O)[C@@H]1O)c1c[nH]cn1", 0.762),
    ("CC[C@H]1OC(=O)C[C@@H](O)[C@H](C)[C@@H](O[C@@H]2O[C@H](C)C[C@H](N(C)C)[C@H]2O)[C@@H](CC=O)C[C@@H](C)C(=O)/C=C/[C@]2(C)O[C@H]2[C@@H]1C", 0.854),
]

Lookup result for CCN1CCN(C(=O)NC(C(=O)NC2C(=O)N3C(C(=O)O)=C(CSc4nnnn4C)CSC23)c2ccc(O)cc2)C(=O)C1=O (stereo not given) ; measured relative enzymatic activity: 0.673

Lookup result for N[C@H]1CCN(c2nc3c(cc2F)c(=O)c(C(=O)O)cn3-c2ccc(F)cc2F)C1 ; measured relative enzymatic activity: 0.774

====

# experimental target: MurC (UniProt C4ZRI6)
# Sequence (C4ZRI6 whole entry, looked up): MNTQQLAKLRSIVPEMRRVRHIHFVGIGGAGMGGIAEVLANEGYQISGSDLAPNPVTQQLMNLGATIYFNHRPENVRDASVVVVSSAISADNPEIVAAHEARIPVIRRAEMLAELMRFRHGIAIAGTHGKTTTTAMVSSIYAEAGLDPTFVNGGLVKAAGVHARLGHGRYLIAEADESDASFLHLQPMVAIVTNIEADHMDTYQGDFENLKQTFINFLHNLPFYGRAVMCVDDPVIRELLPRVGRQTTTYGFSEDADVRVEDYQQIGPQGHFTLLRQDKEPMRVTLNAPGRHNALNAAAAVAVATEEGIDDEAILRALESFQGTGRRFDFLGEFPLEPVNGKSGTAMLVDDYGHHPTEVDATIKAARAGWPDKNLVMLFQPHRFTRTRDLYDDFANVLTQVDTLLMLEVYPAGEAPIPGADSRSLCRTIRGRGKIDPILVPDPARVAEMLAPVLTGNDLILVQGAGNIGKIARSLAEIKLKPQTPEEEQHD
# experiment notes: relative enzymatic activity vs untreated control (fraction); higher = less inhibition
# condition: 100 µM; incubation time: 2 h at 37 C
Listing of entries alongside the reported relative enzymatic activity.
Please reply with the value in numeric form only.

Previously resolved entries follow.
# compound, experimental target, parameter measured, readout value
rows = [
    ("COc1cc2c(cc1OC)C(=O)C(CC1CCN(Cc3ccccc3)CC1)C2.Cl (stereo not drawn)", "MurC (UniProt C4ZRI6)", "relative enzymatic activity", 0.993),
    ("CN[C@@H]1[C@H](O)[C@H](NC)[C@H]2O[C@@]3(O)C(=O)C[C@@H](C)O[C@H]3O[C@@H]2[C@H]1O", "MurC (UniProt C4ZRI6)", "relative enzymatic activity", 0.955),
    ("N[C@@H]1CN(c2c(F)cc3c(=O)c(C(=O)O)cn([C@@H]4C[C@@H]4F)c3c2Cl)CC12CC2", "MurC (UniProt C4ZRI6)", "relative enzymatic activity", 0.971),
]

Lookup result for Nc1nc(C(=CCC(=O)O)C(=O)NC2C(=O)N3C(C(=O)O)=CCSC23)cs1 (stereo not drawn) ; measured relative enzymatic activity: 0.885

Lookup result for CCN1CCN(c2cc3c(cc2F)c(=O)c(C(=O)O)cn3C2CC2)CC1 ; measured relative enzymatic activity: 0.836

Lookup result for Oc1c(Cl)cc(Cl)c2cccnc12 ; measured relative enzymatic activity: 0.928

====

# Test system: DNA gyrase
# experiment notes: relative enzymatic activity vs untreated control (fraction); higher = less inhibition
# condition: 100 µM; incubation time: 2 h at 37 C
Listing of entries alongside the reported relative enzymatic activity.
Please reply with the value in numeric form only.

Previously resolved entries follow.
# compound, experimental target, relative enzymatic activity
data = [
    ("CN(C)[C@@H]1C(=O)[C@@H](C(N)=O)C(=O)[C@@]2(O)C(=O)[C@H]3C(=O)c4c(O)ccc(Cl)c4[C@@H](O)[C@H]3C[C@@H]12", "DNA gyrase", 1.05),
    ("CCCC[P+](CCCC)(CCCC)Cc1ccc(NC(=O)[C@H](Cc2ccc3ccccc3c2)N/C(=N/C2CCCCC2)NC2CCCCC2)cc1", "DNA gyrase", 0.00696),
    ("Cn1cc(-c2[nH]c3cc(NC(=O)[C@H](N)C4CCCCC4)cc4c3c2C=NNC4=O)cn1", "DNA gyrase", 0.0124),
]

// next item, relative enzymatic activity requested
Observed relative enzymatic activity, DNA gyrase, O=C(Cn1cnnn1)NC1C(=O)N2C(C(=O)O)=C(CSc3nncs3)CSC12 (centres undefined) : 0.793

====

# experimental target: DNA primase (UniProt P0ABS7)
# experiment notes: relative enzymatic activity vs untreated control (fraction); higher = less inhibition
# condition: 100 µM; incubation time: 2 h at 37 C
Listing of entries alongside the reported relative enzymatic activity.
Please reply with the value in numeric form only.

Previously resolved entries follow.
# compound, experimental target, relative enzymatic activity
measured = [
    ("C=C1c2cccc(O)c2C(=O)[C@@H]2C(=O)[C@]3(O)C(=O)[C@@H](C(N)=O)C(=O)[C@@H](N(C)C)[C@@H]3[C@@H](O)[C@H]12", "DNA primase (UniProt P0ABS7)", 0.707),
    ("O=C(O)c1cn(C2CC2)c2cc(N3CCNCC3)c(F)cc2c1=O", "DNA primase (UniProt P0ABS7)", 0.687),
    ("O=C1OC(=O)[C@H]2[C@@H]1[C@H]1CC[C@H]2O1", "DNA primase (UniProt P0ABS7)", 0.811),
    ("COc1cc(Cc2cnc(N)nc2N)cc(OC)c1OC", "DNA primase (UniProt P0ABS7)", 0.685),
    ("CC1CCc2cc(F)cc3c(=O)c(C(=O)O)cn1c23 (stereo not given)", "DNA primase (UniProt P0ABS7)", 0.655),
]

Lookup result for Cc1oc(=O)oc1CN1CCN(c2cc3c(cc2F)c(=O)c(C(=O)O)c2n3C(C)S2)CC1 (stereo not given) ; measured relative enzymatic activity: 0.852

Lookup result for COc1c(N2CC3CCCNC3C2)c(F)cc2c(=O)c(C(=O)O)cn(C3CC3)c12.Cl (stereo not given) ; measured relative enzymatic activity: 0.682

====

# experimental target: MurF (UniProt P11880)
# Sequence (P11880 whole entry): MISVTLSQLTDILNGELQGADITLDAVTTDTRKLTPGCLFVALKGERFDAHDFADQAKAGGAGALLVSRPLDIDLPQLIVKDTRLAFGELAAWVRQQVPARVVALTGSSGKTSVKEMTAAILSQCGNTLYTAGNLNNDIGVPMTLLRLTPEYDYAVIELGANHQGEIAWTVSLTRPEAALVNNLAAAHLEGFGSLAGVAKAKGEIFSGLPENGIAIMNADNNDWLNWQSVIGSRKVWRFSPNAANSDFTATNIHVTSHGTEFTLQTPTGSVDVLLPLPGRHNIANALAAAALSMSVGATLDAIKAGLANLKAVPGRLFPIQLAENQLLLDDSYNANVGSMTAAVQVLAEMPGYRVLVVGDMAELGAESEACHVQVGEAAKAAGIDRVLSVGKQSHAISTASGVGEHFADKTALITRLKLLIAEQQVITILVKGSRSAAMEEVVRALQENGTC
# experiment notes: relative enzymatic activity vs untreated control (fraction); higher = less inhibition
# condition: 100 µM; incubation time: 2 h at 37 C
Listing of entries alongside the reported relative enzymatic activity.
Please reply with the value in numeric form only.

# compound, experimental target, relative enzymatic activity
data = [
    ("CC(C)(ON=C(C(=O)NC1C(=O)N2C(C(=O)[O-])=C(C[n+]3ccccc3)CSC12)c1csc(N)n1)C(=O)O (stereo not given)", "MurF (UniProt P11880)", 0.924),
    ("CC(=O)On1cc(F)c(=O)[nH]c1=O", "MurF (UniProt P11880)", 0.933),
    ("CN(C)C1C(O)=C(C(N)=O)C(=O)C2(O)C(O)=C3C(=O)c4c(O)ccc(Cl)c4C(O)C3CC12.Cl (stereo not given)", "MurF (UniProt P11880)", 0.937),
    ("NCC[C@H](O)C(=O)N[C@@H]1C[C@H](N)[C@@H](O[C@H]2O[C@H](CN)[C@@H](O)[C@H](O)[C@H]2O)[C@H](O)[C@H]1O[C@H]1O[C@H](CO)[C@@H](O)[C@H](N)[C@H]1O", "MurF (UniProt P11880)", 0.979),
]

Lookup result for CN[C@H]1CN(c2ccc3c(=O)c(C(=O)O)cn(-c4nccs4)c3n2)C[C@@H]1OC ; measured relative enzymatic activity: 0.955

Just for reference, the supplement of paper PMC9446081 is where these values come from.
